# credit: patent US20240287154A1

Recorded MC3R cAMP (EC50) values for a group of binders are listed next.
# measured-target: human MC3R (human, UniProt P41968 1-323)
# Sequence (P41968 whole entry): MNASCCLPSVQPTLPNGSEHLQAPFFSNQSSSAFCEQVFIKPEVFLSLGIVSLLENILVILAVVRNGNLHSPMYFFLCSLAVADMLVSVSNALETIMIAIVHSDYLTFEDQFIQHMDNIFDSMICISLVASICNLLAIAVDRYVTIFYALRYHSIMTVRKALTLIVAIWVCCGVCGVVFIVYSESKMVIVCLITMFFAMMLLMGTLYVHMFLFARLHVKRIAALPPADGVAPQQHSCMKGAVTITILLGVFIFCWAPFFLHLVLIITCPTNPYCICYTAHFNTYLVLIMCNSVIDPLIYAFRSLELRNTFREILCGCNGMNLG
# test-name: cell-based or functional assay
Non-standard residues stand in square brackets, D forms with d. Nle = CCCC[C@H](N)C(=O)O; dAbu = CC[C@@H](N)C(=O)O
measurement-kind: MC3R cAMP (EC50) (nM)

binder="YVXAHFRWDRFG (Nle at 3; D-Ala at 4; D-Trp at 8; C-terminal amide) [CTX-1118]" recorded_measurement=1.2
binder="YVXAHFRWDRFG (D-Tyr at 1; Nle at 3; D-Ala at 4; D-Trp at 8) [CTX-1125]" recorded_measurement=1.7
binder="Ac-[Nle][dA]HFK[dW]DRFG-OH (SMILES CCCC[C@H](NC(C)=O)C(=O)N[C@H](C)C(=O)N[C@@H](Cc1c[nH]cn1)C(=O)N[C@@H](Cc1ccccc1)C(=O)N[C@@H](CCCCN)C(=O)N[C@H](Cc1c[nH]c2ccccc12)C(=O)N[C@@H](CC(=O)O)C(=O)N[C@@H](CCCNC(=N)N)C(=O)N[C@@H](Cc1ccccc1)C(=O)NCC(=O)O) [CTX-1523]" recorded_measurement=41.7
binder="Ac-[Nle][dA]HFR[dW]FRFG-OH (SMILES CCCC[C@H](NC(C)=O)C(=O)N[C@H](C)C(=O)N[C@@H](Cc1c[nH]cn1)C(=O)N[C@@H](Cc1ccccc1)C(=O)N[C@@H](CCCNC(=N)N)C(=O)N[C@H](Cc1c[nH]c2ccccc12)C(=O)N[C@@H](Cc1ccccc1)C(=O)N[C@@H](CCCNC(=N)N)C(=O)N[C@@H](Cc1ccccc1)C(=O)NCC(=O)O) [CTX-1529]" recorded_measurement=4.8
binder="H-YV[Nle][dAbu]HFR[dW]D-NH2 (SMILES CCCC[C@H](NC(=O)[C@@H](NC(=O)[C@@H](N)Cc1ccc(O)cc1)C(C)C)C(=O)N[C@H](CC)C(=O)N[C@@H](Cc1c[nH]cn1)C(=O)N[C@@H](Cc1ccccc1)C(=O)N[C@@H](CCCNC(=N)N)C(=O)N[C@H](Cc1c[nH]c2ccccc12)C(=O)N[C@@H](CC(=O)O)C(N)=O) [CTX-1131]" recorded_measurement=6.6
binder="Ac-[Nle][dA]HFR[dW]ARFG-OH (SMILES CCCC[C@H](NC(C)=O)C(=O)N[C@H](C)C(=O)N[C@@H](Cc1c[nH]cn1)C(=O)N[C@@H](Cc1ccccc1)C(=O)N[C@@H](CCCNC(=N)N)C(=O)N[C@H](Cc1c[nH]c2ccccc12)C(=O)N[C@@H](C)C(=O)N[C@@H](CCCNC(=N)N)C(=O)N[C@@H](Cc1ccccc1)C(=O)NCC(=O)O) [CTX-1528]" recorded_measurement=1.9
